study system: Albumin (Bos taurus) (UniProt P02769)
Sequence (P02769 whole entry, looked up): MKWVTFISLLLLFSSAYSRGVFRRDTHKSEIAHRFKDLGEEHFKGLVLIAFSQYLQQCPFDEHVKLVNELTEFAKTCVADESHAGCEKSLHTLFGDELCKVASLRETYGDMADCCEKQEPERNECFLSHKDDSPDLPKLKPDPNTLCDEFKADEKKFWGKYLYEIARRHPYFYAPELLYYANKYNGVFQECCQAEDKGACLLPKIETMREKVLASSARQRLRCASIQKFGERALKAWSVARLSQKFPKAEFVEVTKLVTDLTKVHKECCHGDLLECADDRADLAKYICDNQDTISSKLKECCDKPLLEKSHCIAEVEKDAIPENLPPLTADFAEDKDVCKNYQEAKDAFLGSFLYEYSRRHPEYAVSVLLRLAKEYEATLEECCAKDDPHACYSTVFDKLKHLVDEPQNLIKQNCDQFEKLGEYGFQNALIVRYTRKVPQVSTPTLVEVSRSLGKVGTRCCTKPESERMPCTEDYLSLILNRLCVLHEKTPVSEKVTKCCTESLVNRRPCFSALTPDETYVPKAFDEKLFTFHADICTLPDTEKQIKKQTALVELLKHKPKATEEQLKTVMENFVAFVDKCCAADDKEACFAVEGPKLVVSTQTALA
test: bovine serum albumin binders on microarray, profiling panel, artefact control for SMM control protein annotation, biochemical, small-molecule microarray, Alexa647 label, 635/667 nm fluorescence (AID 1118);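 further: score merges 667 nm emission intensity and signal-to-noise per printed compound spot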
condition summary: BSA-A647 binding, fluorescence 635 nm, higher = more signal
Recorded composite z-score determines the label; the label ranges are range 1: < 0.09; range 2: ≥ 0.09 and < 0.7; range 3: ≥ 0.7

# example entries with known answers
{"compound": "CCOC(=O)C[C@H]1[C@H](OC(=O)c2cc3ccccc3oc2=O)[C@@H](NC(=O)Cc2ccc(OC)cc2)c2cc(OCCCO)ccc2N1C(=O)c1ccccc1", "category": "range 3"}
{"compound": "O=C1NC(=O)C2C1C=CC(C(O)c1ccccc1)N2Nc1ccc(Cl)cc1Cl (stereo not given)", "category": "range 3"}
{"compound": "C=CCC(OC(C)=O)[C@@H]1[C@@H](N(Cc2ccc(-c3cccc(C(F)(F)F)c3)o2)C(=O)c2ccc(-c3ccccc3)cc2)c2cc(OCCCO)ccc2N1C(=O)c1ccc(-c2ccccc2)cc1 (stereo not given in full)", "category": "range 1"}
{"compound": "CCCC[C@@H]1C[C@H]1[C@@H](NC(=O)c1ccco1)c1ccc(C(=O)OC)cc1", "category": "range 2"}
{"compound": "CN(C)CCCNC(=O)[C@@]1(c2ccc([N+](=O)[O-])cc2)CC(=O)N(C2CCCCC2)[C@@H]1c1ccc(CO)cc1I", "category": "range 1"}
{"compound": "CC(C)(C)OC(=O)CC[C@@]1(C(=O)NCCN2CCOCC2)N=C(c2ccc(OCCCO)cc2)O[C@@H]1c1ccccc1N=[N+]=[N-]", "category": "range 2"}

Ask | Lab note: which band did `CC(C)(C)C(=O)N[C@@H](c1ccc(Cl)cc1)[C@]1(C)C[C@H]1C1CCCCC1` land in?
Reply | range 3

Data provenance: PubChem BioAssay
